Test: Quantitative High-Throughput drug screen in 47 multiple myeloma cell lines against the NCATS MIPE library collection: JIM3_ECACC cell viability assay (AID 1918963; also: nearly all actives have a fitted effect of over 35% in size)
Conditions: JIM3 myeloma viability, CellTiter-Glo ATP, 48 h; series mostly up to 45.8 µM
Results filed as inconclusive are left out. Calls of active or inactive are those of the source. Calls follow the shape of the dose curve; as a rule, active = well fitted cell-killing curve with a large enough effect; inconclusive = small, poorly fitted or top-dose-only effect; inactive = no such curve, though single readings can be large or run the other way.
Your reply should match one of these outcome classes. active, inactive

Example entries and their recorded answers appear below.
1) Clc1ccc2c(N3CCN(CCCN4CCN(c5ccnc6cc(Cl)ccc56)CC4)CC3)ccnc2c1 : inactive
2) Cc1cc(Cl)ccc1OCCCC(=O)NO : active
3) CC1=C(C(=O)O)N2C(=O)[C@@H](NC(=O)[C@H](N)C3=CCC=CC3)[C@H]2SC1 : inactive

Problem: How was COc1cc2nc(N3CCN(C(=O)C4CCCO4)CC3)nc(N)c2cc1OC (stereo not drawn) classified in this test?
Result: inactive

Problem: How was C[C@H](Cn1cnc2c(N)ncnc21)OCP(=O)(O)O classified in this test?
Result: inactive
